Target: glucosylceramide synthase (Homo sapiens, UniProt Q16739)
Construct: made in house; host or cells: Expi293F cells (transient expression, pcDNA3.3-TOPO vector); microsome fraction used as enzyme source
Sequence (Q16739 1-394): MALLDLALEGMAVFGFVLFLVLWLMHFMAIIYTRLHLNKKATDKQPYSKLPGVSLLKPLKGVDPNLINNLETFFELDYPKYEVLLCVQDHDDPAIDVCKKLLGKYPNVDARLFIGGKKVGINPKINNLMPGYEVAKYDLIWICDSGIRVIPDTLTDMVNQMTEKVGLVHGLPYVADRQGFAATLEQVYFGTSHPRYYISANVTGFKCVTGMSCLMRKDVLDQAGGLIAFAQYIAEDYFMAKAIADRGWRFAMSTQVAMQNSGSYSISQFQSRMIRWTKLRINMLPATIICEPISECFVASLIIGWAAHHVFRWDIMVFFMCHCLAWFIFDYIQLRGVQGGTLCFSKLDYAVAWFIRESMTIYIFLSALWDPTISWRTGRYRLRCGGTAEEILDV
Test: Glucosylceramide synthase (GCS) enzyme assay, microsome fraction, C8 glucosylceramide quantified by Rapidfire MS/MS
Format: biochemical
Settings: test compound 10 μM; 1.7 μM UDP-glucose, 3 μM C8 ceramide; room temperature 60 min; read-out: GCS enzyme inhibitory rate at 10 μM (%) (% of control)
quantity.name: inhibition at 10 µM (%)

O=C1c2ccnc(-c3ccc(F)cc3OCC3CC3)c2CN1c1ccc(OC(F)F)cc1 [Example 129] | 99
O=C1c2ncnc(-c3ccc(F)cc3OCC(F)(F)F)c2CN1c1ccc(F)cc1 [Example 185] | 71
CC(C)(O)c1ccc(N2Cc3c(ccnc3-c3ccccc3OCC(F)(F)F)C2=O)cc1F [Example 262] | 100
COc1ccccc1-c1nccc2c1CN(c1ccc(OC(F)(F)F)nc1)C2=O [Example 26] | 92
CN(C)C(=O)c1ccc(N2Cc3cnn(-c4ccccc4OCC(F)(F)F)c3C2)nc1 [Example 230] | 73
O=C1c2ccnc(-c3ccccc3OCC(F)(F)F)c2CN1c1ccc(C(O)C(F)(F)F)nc1 (racemic) [Example 249] | 98
